Tested on: T1, Human 4-1BB extracellular domain recombinant protein (his-tag) (human, UniProt Q07011 24-186)
T1 construct: extracellular domain; also called Human4-1BB, his-tag; human 4-1BB extracellular region recombinant protein; not shown: his-tag
Test description: SPR (Biacore 8K), VHH-hFc captured on Protein A chip, human 4-1BB-his as analyte, 25°C, 1:1 fit
Assay endpoint: koff (s⁻¹)
Only the number, expressed in s⁻¹, is required.

Binder | Measured number
137-18 VHH-hFc recombinant antibody (Fc fusion, VHH fragment inserted into vector pFclG with human IgG1 Fc tag, expressed in HEK293F; also called CD137-18; not shown: human IgG1 Fc tag of the eukaryotic expression vector pFclG) QVQLVESGGGLVHPGGSLRLSCAASGFIFSLYTMSWVRQAPGKGLEWVSDINSGGDSTDYADSVKGRFTISRDNAKSTLYLQMNSLKPEDTAVYYCAKDYPLGQREDYWGQGTQVTVSS | 0.000792
137-7 VHH-hFc recombinant antibody (Fc fusion, VHH fragment inserted into vector pFclG with human IgG1 Fc tag, expressed in HEK293F; also called CD137-7; not shown: human IgG1 Fc tag of the eukaryotic expression vector pFclG) QVQLVESGGGLVQPGGSLRLSCAASGFTLDSYAIAWFRQAPGKEREGVSCITSSGGSTNYADSVKGRFTISRDGAKNTVYLQLNSLKPEDTAIYYCAAFHRATCVILGEYDYWGQGTQVTVSS | 0.0298
137-1 VHH-hFc recombinant antibody (Fc fusion, also called CD137-1; not shown: human IgG1 Fc tag of the eukaryotic expression vector pFclG) QVQLVESGGGLVQPGGSLRLSCVASGFVFSTVTMGWGRQVPGKEFEWVSGVSSEGITDYADSVKGRFTISRDNAKNTVYLEMNSLKSEDTAEYYCLIGGRWSFGTWGQGTQVTVSS | 0.00916

Here is another binder to look at.
Ask: Give the value of koff reported for the following: 137-16 VHH-hFc recombinant antibody (Fc fusion, VHH fragment inserted into vector pFclG with human IgG1 Fc tag, expressed in HEK293F; Preparation had non-specific bands, purity >70%; also called CD137-16; not shown: human IgG1 Fc tag of the eukaryotic expression vector pFclG) EVQLVESGGGLVQAGASLTLSCVISGRTFSSYAMGWYRQAPGKERAFVGTITWNNDIIYSDSVKGRFTISTDDGKNTMYLQMNNLKPEDTAVYYCAAYSVPYGDFCTLNYDLMDYWGKGTLVTVSS
Result: 0.00274

Values from patent EP4592317A1
